Reference source for all entries: ChEMBL document CHEMBL1142357

Organism: Bos taurus
Assay Info: Displacement of [3H]colchicine from bovine tubulin at 5 uM
inhibition values by entry
Quantity: inhibition (%)

Mol Smiles: COc1cc(C(=O)c2c(N)c3cccc(OC)c3n2C)cc(OC)c1OC
Value Reported: 76
--
Mol Smiles: COc1cc(C(=O)c2sc3c(OC)cccc3c2N)cc(OC)c1OC
Value Reported: 39
--
Mol Smiles: COc1ccc2c(C(=O)c3cc(OC)c(OC)c(OC)c3)c[nH]c2c1
Value Reported: 84
--
Mol Smiles: COc1ccc2c(N)c(C(=O)c3cc(OC)c(OC)c(OC)c3)n(C)c2c1
Value Reported: 38
